Biological target: Corticosteroid-binding globulin (Homo sapiens) (UniProt P08185)
Sequence (P08185 whole entry): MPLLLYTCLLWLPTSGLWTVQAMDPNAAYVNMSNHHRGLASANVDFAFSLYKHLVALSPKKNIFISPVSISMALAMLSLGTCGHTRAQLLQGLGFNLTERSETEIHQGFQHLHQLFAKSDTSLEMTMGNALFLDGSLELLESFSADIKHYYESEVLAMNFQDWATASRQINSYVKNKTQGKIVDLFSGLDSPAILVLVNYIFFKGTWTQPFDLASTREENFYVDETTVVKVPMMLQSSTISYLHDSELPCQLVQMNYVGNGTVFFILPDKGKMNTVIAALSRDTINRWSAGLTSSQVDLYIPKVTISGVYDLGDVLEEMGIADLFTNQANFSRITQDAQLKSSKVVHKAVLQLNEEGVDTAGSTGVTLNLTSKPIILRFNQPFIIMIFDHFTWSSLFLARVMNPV
Test: Compound was evaluated for its binding affinity towards the human corticosteroid binding globulin
Log for assorted molecules
Quick note: give the figure in k, leave out the unit.

Guide cases for Log, answers given:
Input line: Which Log value belongs to `C[C@]12C[C@@H](O)[C@H]3[C@@H](CCC4=CC(=O)CC[C@@]43C)[C@@H]1CC[C@@H]2C(=O)CO` ?
Output line: -7.2

Input line: Continue with `CC(=O)[C@H]1CC[C@H]2[C@@H]3CCC4=CC(=O)CC[C@]4(C)[C@H]3C(=O)C[C@]12C`
Output line: -6.78

Input line: Lookup `CC(=O)[C@H]1[C@H](C)C[C@H]2[C@@H]3CCC4=CC(=O)CC[C@]4(C)[C@H]3CC[C@@]21C`
Output line: -7.12

Please examine the following record next.
Input line: What does the data say about its Log? Entry: `C[C@]12CC[C@H]3[C@@H](CCC4=CC(=O)CC[C@@H]43)[C@@H]1CC[C@@H]2O`
Output line: -6.14

----------
Target: Corticosteroid-binding globulin (Homo sapiens)
Assay: Compound was evaluated for its binding affinity towards the human corticosteroid binding globulin
Log values by entry
Give the value, in units of k, as a plain number.

Sample records with Log:
Input line: Please report the recorded Log for `C[C@@H]1C[C@@]2(C)C(=CC1=O)CC[C@H]1[C@@H]3CC[C@](O)(C(=O)CO)[C@@]3(C)C[C@H](O)[C@@]12F` .
Output line: -5.8

Input line: What would you report for `CC(=O)[C@@]1(O)[C@H](O)C[C@H]2[C@@H]3CCC4=CC(=O)CC[C@]4(C)[C@H]3CC[C@@]21C` ?
Output line: -6.25

Input line: Input CC(=O)[C@H]1CCC2C3CCC4=CC(=O)CCC4C3CC[C@@]21C (stereo not given in full)
Output line: -6.82

Input line: Then CC(=O)OCC(=O)[C@@]1(O)CCC2C3CCC4=CC(=O)CC[C@]4(C)C3[C@@H](O)C[C@@]21C (stereo not given in full) ?
Output line: -7.55

Further cases:
Input line: Suppose we examine the compound `C[C@]12C=CC(=O)C=C1CC[C@@H]1[C@@H]2[C@@H](O)C[C@@]2(C)[C@H]1CC[C@]2(O)C(=O)CO` ; what Log value has been reported?
Output line: -7.51

// provenance: ChEMBL document CHEMBL1132579
